Give measured EC50 for each item. Keep answers brief.
# System: panel of nearly 500 cancer cell lines
# protocol_summary: Cancer Cell Line Encyclopedia profiling, 3-day CellTiter-Glo
# Assay type: cell-based
# condition_details: KE-97
// return numeric value only (unit: µM, not printed)

q: Requested field: EC50. Item: CC(=O)c1c(C)c2cnc(Nc3ccc(N4CCNCC4)cn3)nc2n(C2CCCC2)c1=O [Palbociclib, reference compound]
a: 2.26

q: Need EC50, item CN(C)C(=O)c1cc2cnc(Nc3ccc(N4CCNCC4)cn3)nc2n1C1CCCC1 [Ribociclib]
a: 3.81

----------
# Test system: panel of nearly 500 cancer cell lines
# protocol_summary: Cancer Cell Line Encyclopedia profiling, 3-day CellTiter-Glo
# Type: cell-based
# condition_details: Mono-Mac-1
result_type: IC50
Include the unit right after the number.

q: If you can, please state the reported IC50 value of CN(C)C(=O)c1cc2cnc(Nc3ccc(N4CCNCC4)cn3)nc2n1C1CCCC1 [Ribociclib] .
a: 3.22 µM

----------
# protocol_summary: in vivo
# condition_details: male, rat, po, 150 mg/kg
result_type: Cmax (ng/mL)
API: value field is a number in ng/mL; no unit string.

q: # get_value(readout='Cmax', item= CN(C)C(=O)c1cc2cnc(Nc3ccc(N4CCNCC4)cn3)nc2n1C1CCCC1 [Ribociclib] )
a: 1680

----------
# Tested on: panel of nearly 500 cancer cell lines
# protocol_summary: Cancer Cell Line Encyclopedia profiling, 3-day CellTiter-Glo
# Format: cell-based
# condition_details: sh10tc (stomach); read-out: IC50
pIC50: −log10 of the molar value.
result_type: pIC50

q: GET /values?readout=pIC50&item= CC(=O)c1c(C)c2cnc(Nc3ccc(N4CCNCC4)cn3)nc2n(C2CCCC2)c1=O
a: < 5.10

----------
# Test system: panel of nearly 500 cancer cell lines
# protocol_summary: Cancer Cell Line Encyclopedia profiling, 3-day CellTiter-Glo
# Type: cell-based
# condition_details: bl70 (haematopoietic_and_lymphoid_tissue); read-out: IC50
result_type: pIC50
# log scale: pIC50 equals minus log10 of the concentration in mol/L

q: Quick check: pIC50 on panel of nearly 500 cancer cell lines, item CC(=O)c1c(C)c2cnc(Nc3ccc(N4CCNCC4)cn3)nc2n(C2CCCC2)c1=O [Palbociblib] ?
a: 5.34

----------
# Tested on: panel of nearly 500 cancer cell lines
# protocol_summary: Cancer Cell Line Encyclopedia profiling, 3-day CellTiter-Glo
# Assay type: cell-based
# condition_details: hs683 (central_nervous_system); read-out: IC50
pIC50: −log10 of the molar value.
result_type: pIC50

q: Return pIC50 measured with panel of nearly 500 cancer cell lines given this compound: CC(=O)c1c(C)c2cnc(Nc3ccc(N4CCNCC4)cn3)nc2n(C2CCCC2)c1=O
a: < 5.10

----------
# System: panel of nearly 500 cancer cell lines
# protocol_summary: Cancer Cell Line Encyclopedia profiling, 3-day CellTiter-Glo
# Assay type: cell-based
# condition_details: OE21
result_type: pEC50
The scale used: pEC50 is minus the common logarithm of the concentration in molar units.

q: Fill blank: measured pEC50 of the molecule CC(=O)c1c(C)c2cnc(Nc3ccc(N4CCNCC4)cn3)nc2n(C2CCCC2)c1=O [Palbociclib, reference compound] is ____.
a: 5.32

----------
# System: panel of nearly 500 cancer cell lines
# protocol_summary: Cancer Cell Line Encyclopedia profiling, 3-day CellTiter-Glo
# Assay type: cell-based
# condition_details: ncih1944 (lung); read-out: IC50
result_type: pIC50
// scale note: pIC50 = -log10(conc_M); give the bare number

q: Can you look up the measured pIC50 of CC(=O)c1c(C)c2cnc(Nc3ccc(N4CCNCC4)cn3)nc2n(C2CCCC2)c1=O [Palbociblib] for me?
a: 5.35
